Every entry's value here was drawn from ChEMBL document CHEMBL1165965.

Reported inhibition is given for each of the following compounds.
- system: Tyrosine-protein kinase JAK2 (Homo sapiens)
- assay_name: Inhibition of JAK2 JH1 catalytic domain at 1 uM
Dear colleague, please return just the value in %, with no unit written.

Worked examples follow.
smiles_record=CC(=O)N1CCN(c2cc(-c3cnc4c(c3)N(Cc3cc(Cl)ccc3C(F)(F)F)CCN4)ccn2)CC1 measured_quantity=inhibition readout_value=96
smiles_record=O=C(c1ccc(-c2cnc3c(c2)N(Cc2cc(Cl)ccc2C(F)(F)F)CCN3)cc1)N1CCC(N2CCCC2)CC1 measured_quantity=inhibition readout_value=99.5
smiles_record=O=C(c1ccc(-c2cnc3c(c2)N(Cc2cc(Cl)ccc2C(F)(F)F)CCN3)cc1)N1CCCCC1 measured_quantity=inhibition readout_value=96.3
smiles_record=CN1CCN(c2ccc(-c3cnc4c(c3)N(Cc3c(F)ccc(F)c3Cl)CCN4)cn2)CC1 measured_quantity=inhibition readout_value=77

Shifting focus to the compound that follows.
# input compound: CN1CCN(c2ccc(-c3cnc4c(c3)N(Cc3cc(F)ccc3F)CCN4)cn2)CC1 ; wanted: its inhibition 94.7

* * *

- system: Activated CDC42 kinase 1 (Homo sapiens)
- assay_name: Inhibition of TNK2 at 1 uM
measured_quantity: inhibition
Write the numeric value and append its unit.

smiles_record=O=C(c1ccc(-c2cnc3c(c2)N(Cc2cc(Cl)ccc2C(F)(F)F)CCN3)cc1)N1CCC(N2CCCC2)CC1 readout_value=99.8%
smiles_record=CN1CCN(c2ccc(-c3cnc4c(c3)N(Cc3cc(Cl)ccc3Cl)CCN4)cn2)CC1 readout_value=88%

# input molecule: O=C(O)c1ccc(-c2cnc3c(c2)N(Cc2cc(Cl)ccc2C(F)(F)F)CCN3)cc1 ; wanted: its inhibition 97.4%

// next record CN1CCN(c2ccc(-c3cnc4c(c3)N(Cc3cc(F)ccc3F)CCN4)cn2)CC1 79%

// next record FC(F)(F)c1ccc(Cl)cc1CN1CCNc2ncc(-c3ccnc(N4CCNCC4)c3)cc21 99%

// next record COC1CCN(C(=O)c2ccc(-c3cnc4c(c3)N(Cc3cc(Cl)ccc3C(F)(F)F)CCN4)cc2)CC1 97.2%

// next record CN1CCN(c2ccc(-c3cnc4c(c3)N(Cc3c(F)ccc(F)c3Cl)CCN4)cn2)CC1 85%

* * *

- system: Serine/threonine-protein kinase TAO1 (Homo sapiens)
- Sequence (whole entry): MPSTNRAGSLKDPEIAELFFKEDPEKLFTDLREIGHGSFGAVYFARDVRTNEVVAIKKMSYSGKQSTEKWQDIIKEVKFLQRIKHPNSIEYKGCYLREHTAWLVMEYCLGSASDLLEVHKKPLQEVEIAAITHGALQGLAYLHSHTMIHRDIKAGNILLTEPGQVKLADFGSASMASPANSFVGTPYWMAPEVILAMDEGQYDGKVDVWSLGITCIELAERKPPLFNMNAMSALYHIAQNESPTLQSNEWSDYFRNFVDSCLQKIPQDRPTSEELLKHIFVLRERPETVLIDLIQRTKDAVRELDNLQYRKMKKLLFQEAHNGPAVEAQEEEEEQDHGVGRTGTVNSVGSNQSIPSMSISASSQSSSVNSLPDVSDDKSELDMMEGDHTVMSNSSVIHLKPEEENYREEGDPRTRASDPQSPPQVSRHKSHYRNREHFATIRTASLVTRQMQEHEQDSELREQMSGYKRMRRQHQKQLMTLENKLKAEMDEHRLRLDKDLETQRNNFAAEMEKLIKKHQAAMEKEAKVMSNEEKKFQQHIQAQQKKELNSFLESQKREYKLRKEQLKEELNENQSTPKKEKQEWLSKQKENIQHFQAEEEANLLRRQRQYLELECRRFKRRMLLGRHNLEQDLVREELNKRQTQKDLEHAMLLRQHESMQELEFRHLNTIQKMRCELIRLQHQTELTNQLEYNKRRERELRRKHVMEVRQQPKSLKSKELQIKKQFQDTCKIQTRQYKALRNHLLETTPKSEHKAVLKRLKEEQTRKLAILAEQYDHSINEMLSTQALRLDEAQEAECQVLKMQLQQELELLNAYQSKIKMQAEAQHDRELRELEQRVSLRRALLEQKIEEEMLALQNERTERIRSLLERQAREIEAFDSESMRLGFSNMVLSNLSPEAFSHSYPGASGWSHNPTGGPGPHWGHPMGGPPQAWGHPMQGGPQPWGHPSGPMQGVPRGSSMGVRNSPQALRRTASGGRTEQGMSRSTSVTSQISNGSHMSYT
- assay_name: Inhibition of TAOK1 at 1 uM
Reported inhibition is given for each of the following compounds.

Worked examples follow.
smiles_record=CN1CCN(c2ccc(-c3cnc4c(c3)N(Cc3cc(Cl)ccc3C(F)(F)F)CCN4)cn2)CC1 measured_quantity=inhibition readout_value="< 50%"
smiles_record=CN1CCN(c2ccc(-c3cnc4c(c3)N(Cc3cc(Cl)ccc3Cl)CCN4)cn2)CC1 measured_quantity=inhibition readout_value="< 50%"
smiles_record=CN1CCN(c2ccc(-c3cnc4c(c3)N(Cc3c(F)ccc(F)c3Cl)CCN4)cn2)CC1 measured_quantity=inhibition readout_value="< 50%"

Serine/threonine-protein kinase TAO1 (Homo sapiens) / inhibition / CC(=O)N1CCN(c2cc(-c3cnc4c(c3)N(Cc3cc(Cl)ccc3C(F)(F)F)CCN4)ccn2)CC1 : value? < 50%

// next record CN1CCN(c2ccc(-c3cnc4c(c3)N(Cc3cc(F)ccc3F)CCN4)cn2)CC1 < 50%

// next record FC(F)(F)c1ccc(Cl)cc1CN1CCNc2ncc(-c3ccnc(N4CCNCC4)c3)cc21 < 50%

* * *

- system: Aurora kinase A (Homo sapiens)
- assay_name: Inhibition of AURKA at 1 uM
Reported inhibition is given for each of the following compounds.
Dear colleague, please return just the value in %, with no unit written.

smiles_record=O=C(O)c1ccc(-c2cnc3c(c2)N(Cc2cc(Cl)ccc2C(F)(F)F)CCN3)cc1 system="Aurora kinase A (Homo sapiens)" readout_value=80.2

Shifting focus to the compound that follows.
Aurora kinase A (Homo sapiens) / inhibition / FC(F)(F)c1ccc(Cl)cc1CN1CCNc2ncc(-c3ccnc(N4CCNCC4)c3)cc21 : value? 68

* * *

- system: Platelet-derived growth factor receptor beta (Homo sapiens)
- assay_name: Inhibition of PDGFRB at 1 uM
measured_quantity: inhibition

Worked examples follow.
smiles_record=CN1CCN(c2ccc(-c3cnc4c(c3)N(Cc3cc(Cl)ccc3C(F)(F)F)CCN4)cn2)CC1 readout_value="< 50%"
smiles_record=O=C(O)c1ccc(-c2cnc3c(c2)N(Cc2cc(Cl)ccc2C(F)(F)F)CCN3)cc1 readout_value="< 50%"
smiles_record=CN1CCN(c2ccc(-c3cnc4c(c3)N(Cc3cc(F)ccc3F)CCN4)cn2)CC1 readout_value="< 50%"
smiles_record=O=C(c1ccc(-c2cnc3c(c2)N(Cc2cc(Cl)ccc2C(F)(F)F)CCN3)cc1)N1CCCCC1 readout_value="< 50%"
smiles_record=O=C(c1ccc(-c2cnc3c(c2)N(Cc2cc(Cl)ccc2C(F)(F)F)CCN3)cc1)N1CCC(N2CCCC2)CC1 readout_value=76.4%

Platelet-derived growth factor receptor beta (Homo sapiens) / inhibition / CC(=O)N1CCN(c2cc(-c3cnc4c(c3)N(Cc3cc(Cl)ccc3C(F)(F)F)CCN4)ccn2)CC1 : value? < 50%

// next record CN1CCN(c2ccc(-c3cnc4c(c3)N(Cc3cc(Cl)ccc3Cl)CCN4)cn2)CC1 < 50%

// next record CN1CCN(c2ccc(-c3cnc4c(c3)N(Cc3c(F)ccc(F)c3Cl)CCN4)cn2)CC1 < 50%

// next record FC(F)(F)c1ccc(Cl)cc1CN1CCNc2ncc(-c3ccnc(N4CCNCC4)c3)cc21 92%

// next record COC1CCN(C(=O)c2ccc(-c3cnc4c(c3)N(Cc3cc(Cl)ccc3C(F)(F)F)CCN4)cc2)CC1 < 50%

* * *

- system: Ephrin type-B receptor 3 (Homo sapiens)
- Sequence (whole entry): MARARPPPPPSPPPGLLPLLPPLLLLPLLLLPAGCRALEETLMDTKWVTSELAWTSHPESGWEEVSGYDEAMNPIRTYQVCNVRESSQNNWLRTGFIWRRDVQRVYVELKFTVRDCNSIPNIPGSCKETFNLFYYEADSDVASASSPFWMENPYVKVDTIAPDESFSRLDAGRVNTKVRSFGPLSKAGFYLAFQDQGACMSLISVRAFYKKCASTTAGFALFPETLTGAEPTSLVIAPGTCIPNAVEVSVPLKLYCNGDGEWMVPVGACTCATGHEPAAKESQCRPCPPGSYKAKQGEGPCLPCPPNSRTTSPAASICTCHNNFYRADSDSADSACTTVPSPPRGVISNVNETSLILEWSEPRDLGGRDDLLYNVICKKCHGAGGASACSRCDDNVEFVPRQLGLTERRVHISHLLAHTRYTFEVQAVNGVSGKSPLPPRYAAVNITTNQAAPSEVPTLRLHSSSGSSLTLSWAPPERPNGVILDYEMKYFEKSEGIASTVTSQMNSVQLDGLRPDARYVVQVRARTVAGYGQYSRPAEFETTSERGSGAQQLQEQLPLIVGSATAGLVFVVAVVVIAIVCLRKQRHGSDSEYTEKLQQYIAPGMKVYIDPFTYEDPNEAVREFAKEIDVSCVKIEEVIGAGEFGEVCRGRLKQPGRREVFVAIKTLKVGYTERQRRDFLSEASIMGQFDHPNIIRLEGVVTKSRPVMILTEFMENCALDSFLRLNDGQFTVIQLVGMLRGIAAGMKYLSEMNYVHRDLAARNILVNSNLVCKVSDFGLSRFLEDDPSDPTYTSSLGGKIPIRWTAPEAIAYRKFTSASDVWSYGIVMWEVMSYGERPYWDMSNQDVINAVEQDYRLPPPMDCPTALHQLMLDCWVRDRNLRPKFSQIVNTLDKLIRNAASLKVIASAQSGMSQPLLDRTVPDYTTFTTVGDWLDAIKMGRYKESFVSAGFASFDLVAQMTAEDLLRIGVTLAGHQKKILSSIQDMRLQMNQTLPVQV
- assay_name: Inhibition of EPHB3 at 1 uM
measured_quantity: inhibition

Worked examples follow.
smiles_record=CN1CCN(c2ccc(-c3cnc4c(c3)N(Cc3cc(Cl)ccc3Cl)CCN4)cn2)CC1 readout_value="< 50%"
smiles_record=FC(F)(F)c1ccc(Cl)cc1CN1CCNc2ncc(-c3ccnc(N4CCNCC4)c3)cc21 readout_value="< 50%"

# input compound: CN1CCN(c2ccc(-c3cnc4c(c3)N(Cc3cc(Cl)ccc3C(F)(F)F)CCN4)cn2)CC1 ; wanted: its inhibition < 50%

// next record O=C(c1ccc(-c2cnc3c(c2)N(Cc2cc(Cl)ccc2C(F)(F)F)CCN3)cc1)N1CCC(N2CCCC2)CC1 < 50%

// next record O=C(c1ccc(-c2cnc3c(c2)N(Cc2cc(Cl)ccc2C(F)(F)F)CCN3)cc1)N1CCCCC1 < 50%

// next record O=C(O)c1ccc(-c2cnc3c(c2)N(Cc2cc(Cl)ccc2C(F)(F)F)CCN3)cc1 < 50%

// next record CC(=O)N1CCN(c2cc(-c3cnc4c(c3)N(Cc3cc(Cl)ccc3C(F)(F)F)CCN4)ccn2)CC1 < 50%

// next record COC1CCN(C(=O)c2ccc(-c3cnc4c(c3)N(Cc3cc(Cl)ccc3C(F)(F)F)CCN4)cc2)CC1 < 50%

// next record CN1CCN(c2ccc(-c3cnc4c(c3)N(Cc3cc(F)ccc3F)CCN4)cn2)CC1 < 50%

// next record CN1CCN(c2ccc(-c3cnc4c(c3)N(Cc3c(F)ccc(F)c3Cl)CCN4)cn2)CC1 < 50%
